Tested on: ATP;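 also: ATP exposure 15 min at 22 °C before imaging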
MEASUREMENT DESCRIPTION: switch fluorescence ratio, 500 uM ATP over buffer (Cy3 cluster intensity, sum of 5 cycles each) (fold (ratio)); higher = stronger signal-on switching upon ATP binding; sequences stand for … in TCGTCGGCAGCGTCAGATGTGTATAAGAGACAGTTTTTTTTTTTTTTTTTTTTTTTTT…TC
MEASUREMENT CONDITIONS: aptamer strand: ATP DNA aptamer (quencher-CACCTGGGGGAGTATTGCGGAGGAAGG + anchor), 100 nM annealed; ATP concentration: 500 uM
A collection of sequences and their measured switch fluorescence ratio
READOUT KIND: switch fluorescence ratio

{"columns": ["RESIDUE CODES", "READOUT KIND", "RECORDED VALUE"],
 "data": [
  ["GATAGTATGT", "switch fluorescence ratio", 0.981],
  ["GGGAAAAACA", "switch fluorescence ratio", 1.02],
  ["GCTGTAAGAA", "switch fluorescence ratio", 1.01]
]}
